- MEASUREMENT_TARGET: cIAP1-BIR3 Protein (Homo sapiens (Human))
- Sequence (Q13490 253-363): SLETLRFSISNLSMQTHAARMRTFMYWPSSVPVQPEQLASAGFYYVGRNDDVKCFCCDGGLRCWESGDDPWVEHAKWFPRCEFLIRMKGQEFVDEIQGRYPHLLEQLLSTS
- EXPERIMENT_SUMMARY: Fluorescence polarization affinity of compounds to cIAP1-BIR3
- CONDITION_SET: cIAP1-BIR3 20 nM; 5 nM ARPFAQ-K(5-FAM)-NH2 probe; FP; pH 7.5; read-out: affinity to target protein in vitro, cIAP1-BIR3 Protein (IC50)
- Protocol: Biological Assay 1: affinity of compounds to cIAP1-BIR3, cIAP2-BIR3, XIAP-BIR3 • 1) Affinity of compounds listed in table to cIAP1-BIR3, Ciap2-BIR3, XIAP-BIR3 was tested referring to Nikolovska-Colesks, Z. et.Al. (Analytical Biochemistry,2004,232:261-273) to obtain IC50 value. […] After incubating for 60 min, FP was tested and mP was calculated. […]
TEST_READOUT: IC50

CC[C@H](NC(=O)[C@H](C)NC)C(=O)N1C[C@@H](F)C[C@H]1Cc1c(-c2nc3cc(F)ccc3n2C[C@@H]2CCCN2C(=O)[C@@H](NC(=O)[C@H](C)NC)C(C)(C)C)[nH]c2cc(F)ccc12; < 10 nM

Summary for this molecule, "CN[C@@H](C)C(=O)N[C@H](C(=O)N1C[C@@H](F)C[C@H]1Cc1c(-c2nc3cc(F)ccc3n2C[C@@H]2C[C@H](F)CN2C(=O)[C@@H](NC(=O)[C@H](C)NC)C2CCCCC2)[nH]c2cc(F)ccc12)C1CC1" : IC50 is < 10 nM

Summary for this molecule, "CCC[C@H](NC(=O)[C@H](C)NC)C(=O)N1C[C@@H](F)C[C@H]1Cc1c(-c2nc3cc(F)ccc3n2C[C@@H]2C[C@H](F)CN2C(=O)[C@@H](NC(=O)[C@H](C)NC)C(C)C)[nH]c2cc(F)ccc12" : IC50 is < 10 nM

Summary for this molecule, "CN[C@@H](C)C(=O)N[C@H](C(=O)N1C[C@@H](F)C[C@H]1Cc1c(-c2nc3cc(F)ccc3n2C[C@@H]2C[C@H](F)CN2C(=O)[C@@H](NC(=O)[C@H](C)NC)C2CC2)[nH]c2cc(F)ccc12)C1CC1" : IC50 is < 10 nM

* * *

IC50 values by entry
- MEASUREMENT_TARGET: XIAP-BIR3 Protein (Homo sapiens (Human))
- Sequence (P98170 241-356): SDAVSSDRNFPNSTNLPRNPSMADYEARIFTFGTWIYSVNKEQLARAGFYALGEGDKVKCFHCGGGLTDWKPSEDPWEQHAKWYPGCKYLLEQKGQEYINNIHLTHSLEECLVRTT
- EXPERIMENT_SUMMARY: Fluorescence polarization affinity of compounds to XIAP-BIR3
- CONDITION_SET: XIAP-BIR3 30 nM; 5 nM ARPFAQ-K(5-FAM)-NH2 probe; FP; pH 7.5; read-out: affinity to target protein in vitro, XIAP-BIR3 Protein (IC50)

Below are worked cases with known answers.
CC[C@H](NC(=O)[C@H](C)NC)C(=O)N1CCC[C@H]1Cc1c(-c2nc3cc(F)ccc3n2C[C@@H]2C[C@H](F)CN2C(=O)[C@@H](NC(=O)[C@H](C)NC)C(C)(C)C)[nH]c2cc(F)ccc12; < 10 nM
CC[C@H](NC(=O)[C@H](C)NC)C(=O)N1C[C@@H](F)C[C@H]1Cc1c(-c2nc3cc(F)ccc3n2C[C@@H]2C[C@H](F)CN2C(=O)[C@@H](NC(=O)[C@H](C)NC)C2CC2)[nH]c2cc(F)ccc12; 10 to 100 nM
CN[C@@H](C)C(=O)N[C@H](C(=O)N1C[C@@H](F)C[C@H]1Cc1c(-c2nc3cc(F)ccc3n2C[C@@H]2C[C@H](F)CN2C(=O)[C@@H](NC(=O)[C@H](C)NC)C2CCC2)[nH]c2cc(F)ccc12)C1CCC1; < 10 nM
CC[C@H](NC(=O)[C@H](C)NC)C(=O)N1C[C@@H](F)C[C@H]1Cc1c(-c2nc3cc(F)ccc3n2C[C@@H]2C[C@H](F)CN2C(=O)[C@H](CC)NC(=O)[C@H](C)NC)[nH]c2cc(F)ccc12; 10 to 100 nM
CN[C@@H](C)C(=O)N[C@H](C(=O)N1C[C@@H](F)C[C@H]1Cc1c(-c2nc3cc(F)ccc3n2C[C@@H]2C[C@H](F)CN2C(=O)[C@@H](NC(=O)[C@H](C)NC)C2CCCCC2)[nH]c2cc(F)ccc12)C1CC1; 10 to 100 nM

Summary for this compound, "CN[C@@H](C)C(=O)N[C@H](C(=O)N1CCC[C@H]1Cc1c(-c2nc3cc(F)ccc3n2C[C@@H]2CCCN2C(=O)[C@@H](NC(=O)[C@H](C)NC)C(C)C)[nH]c2cc(F)ccc12)C(C)C" : IC50 is 10 to 100 nM

Summary for this compound, "CCC[C@H](NC(=O)[C@H](C)NC)C(=O)N1C[C@@H](F)C[C@H]1Cn1c(-c2[nH]c3cc(F)ccc3c2C[C@@H]2C[C@H](F)CN2C(=O)[C@@H](NC(=O)[C@H](C)NC)C2CCCCC2)nc2cc(F)ccc21" : IC50 is 10 to 100 nM

Summary for this compound, "CN[C@@H](C)C(=O)N[C@H](C(=O)N1C[C@@H](F)C[C@H]1Cn1c(-c2[nH]c3cc(F)ccc3c2C[C@@H]2C[C@H](F)CN2C(=O)[C@@H](NC(=O)[C@H](C)NC)C2CC2)nc2cc(F)ccc21)C(C)C" : IC50 is < 10 nM

Summary for this compound, "CC[C@H](NC(=O)[C@H](C)NC)C(=O)N1C[C@@H](F)C[C@H]1Cc1c(-c2nc3cc(F)ccc3n2C[C@@H]2C[C@H](F)CN2C(=O)[C@@H](NC(=O)[C@H](C)NC)C(C)(C)C)[nH]c2cc(F)ccc12" : IC50 is 10 to 100 nM

Summary for this compound, "CCC[C@H](NC(=O)[C@H](C)NC)C(=O)N1C[C@@H](F)C[C@H]1Cc1c(-c2nc3cc(F)ccc3n2C[C@@H]2C[C@H](F)CN2C(=O)[C@@H](NC(=O)[C@H](C)NC)C(C)C)[nH]c2cc(F)ccc12" : IC50 is 10 to 100 nM

Summary for this compound, "CC[C@H](NC(=O)[C@H](C)NC)C(=O)N1C[C@@H](F)C[C@H]1Cn1c(-c2[nH]c3cc(F)ccc3c2C[C@@H]2C[C@H](F)CN2C(=O)[C@@H](NC(=O)[C@H](C)NC)C2CCCCC2)nc2cc(F)ccc21" : IC50 is < 10 nM
